test system: LCLC-97TM1; assay: relative viability (nuclei count vs DMSO), 5 days (fraction); higher = more cells survive; conditions: first compound 0.3162 µM
Endpoint label: relative viability
Reply with just the number.

Tell me relative viability reported for CC(C)Oc1cc(Nc2nc(N[C@@H](C)c3ccc(F)cn3)ncc2Cl)n[nH]1 [AZ23] + Cc1nc(NC(=O)N2CCC[C@H]2C(N)=O)sc1-c1ccnc(C(C)(C)C(F)(F)F)c1 [Alpelisib] (partner 2 µM)
0.245

Tell me relative viability reported for CC(C)Oc1cc(Nc2nc(N[C@@H](C)c3ccc(F)cn3)ncc2Cl)n[nH]1 [AZ23] + CS(=O)(=O)N1CCN(Cc2cc3nc(-c4cccc5[nH]ncc45)nc(N4CCOCC4)c3s2)CC1 [Pictilisib] (partner 1 µM)
0.157

Tell me relative viability reported for CC(C)Oc1cc(Nc2nc(N[C@@H](C)c3ccc(F)cn3)ncc2Cl)n[nH]1 [AZ23] + CC1(C)CCC(c2ccc(Cl)cc2)=C(CN2CCN(c3ccc(C(=O)NS(=O)(=O)c4ccc(N[C@H](CCN5CCOCC5)CSc5ccccc5)c(S(=O)(=O)C(F)(F)F)c4)cc3)CC2)C1 [Navitoclax] (partner 0.5 µM)
0.603

Tell me relative viability reported for CC(C)Oc1cc(Nc2nc(N[C@@H](C)c3ccc(F)cn3)ncc2Cl)n[nH]1 [AZ23] + CS(=O)(=O)CCNCc1ccc(-c2ccc3ncnc(Nc4ccc(OCc5cccc(F)c5)c(Cl)c4)c3c2)o1 [Lapatinib] (partner 2 µM)
1.23
